Across several studies, compounds have been characterized by their Ki on UniProt:P47901; a selection follows.

Study these solved cases before continuing.
| compound | Ki |
| --- | --- |
| CC(C)NC(=O)Cn1c(-c2cccc(Cl)c2)nc2ccc([C@H]3C[C@@H](CN4CCC(C)(O)CC4)C3)cc2c1=O | 1 to 10 nM |
| CC(C)NC(=O)Cn1c(-c2cccc(Cl)c2)nc2ccc([C@H]3C[C@@H](CN4CCC[C@H](O)C4)C3)cc2c1=O | 1 to 10 nM |

Query: For UniProt:P47901, provide Ki of CCN(CC)Cc1ccc(OC)c(C2(N3CCC[C@H]3c3ncco3)C(=O)N(S(=O)(=O)c3ccc(OC)cc3)c3ccc(Cl)cc32)c1 (stereo partly drawn) please.
Result: < 10 nM

Query: For UniProt:P47901, provide Ki of COc1ccc(S(=O)(=O)N2C(=O)C(c3cc(CN4CCN(C)CC4)ccc3OC)(N3CCC[C@H]3c3ncco3)c3cc(Cl)ccc32)cc1F (stereo partly drawn) please.
Result: 10 to 100 nM

Query: For UniProt:P47901, provide Ki of CN1CCC(N2CCN(C(=O)C(c3ccccc3)n3c(=O)n(S(=O)(=O)c4ccc(C#N)cc4)c4ccc(C#N)cc43)CC2)CC1 (stereo not drawn) please.
Result: 500 to 10000 nM

Query: For UniProt:P47901, provide Ki of CCN1CCN(Cc2ccc(C3(N4CCC[C@H]4c4ncco4)C(=O)N(S(=O)(=O)c4ccc(OC)cc4)c4ccc(Cl)c(F)c43)c(OC)c2)CC1 (stereo partly drawn) please.
Result: < 10 nM

###

Across several studies, compounds have been characterized by their Ki on Vasopressin V1b receptor (Homo sapiens, UniProt P47901); a selection follows.

| compound | property_label | obs_value |
| --- | --- | --- |
| COc1ccc(S(=O)(=O)n2c(=O)n(C(C(=O)N3CC[C@H](NC4CCNCC4)C3)c3ccccc3)c3cc(Cl)ccc32)cc1 (stereo partly shown) | Ki | < 100 nM |
| CCOc1ccccc1C1(N2CCCN(c3ccncc3)CC2)C(=O)N(S(=O)(=O)c2ccc(OC)cn2)c2ccc(C#N)cc21 (racemic) | Ki | 10 to 50 nM |
| COc1ccccc1C1(N2CCN(c3ccncc3)CC2)C(=O)N(S(=O)(=O)c2ccc(C)cc2OC)c2ccc(Cl)cc21 (stereo not shown) | Ki | < 50 nM |
| CCOc1ccccc1C1(NC(=O)N2CCN(C3CCN(CC)CC3)CC2)C(=O)N(S(=O)(=O)c2ccc(OC)cc2OC)c2cc(F)c(C#N)cc21 (stereo not shown) | Ki | < 1 nM |
| CCCN1CCN(C2CCN(C(=O)NC3(c4cccnc4OCC)C(=O)N(S(=O)(=O)c4ccc(OC)cc4OC)c4ccc(C#N)cc43)CC2)CC1 (racemic) | Ki | < 10 nM |
| O=C(Cn1c(-c2cccc(Cl)c2)nc2ccc([C@H]3C[C@@H](CN4CCCCC4)C3)cc2c1=O)NCC1CC1 | Ki | 10 to 100 nM |
| COc1cc(CN2CCN(CCO)CC2)ccc1C1(N2CCC[C@H]2c2ncco2)C(=O)N(S(=O)(=O)c2ccc(C#N)cc2)c2ccc(Cl)cc21 (stereo partly shown) | Ki | 10 to 100 nM |
| COc1ccc(S(=O)(=O)n2c(=O)n(C(C(=O)NCCCN3CCOCC3)c3ccccc3)c3cc(Cl)ccc32)cc1 (stereo not shown) | Ki | 500 to 10000 nM |

Query: Recorded Ki for CNCc1ccc(OC)c(C2(N3CCCC3c3ccccn3)C(=O)N(S(=O)(=O)c3ccc(OC)cc3)c3ccc(Cl)cc32)c1 (stereo not shown) , please?
Result: 100 to 1000 nM

Query: Recorded Ki for COc1ccc(S(=O)(=O)N2C(=O)C(c3cc(CNC(C)C)ccc3OC)(N3CCC[C@H]3c3ncco3)c3cc(Cl)c(Cl)cc32)cc1 (stereo partly shown) , please?
Result: 10 to 100 nM

Query: Recorded Ki for COc1ccc(OC(C)C)c(C2(N3CCN(c4ccncc4)CC3)C(=O)N(S(=O)(=O)c3ccc(C)cn3)c3ccc(C#N)cc32)c1 (racemic) , please?
Result: 10 to 50 nM

Query: Recorded Ki for CCOc1ncccc1C1(OC(=O)N2CCN(C3CCN(C)CC3)CC2)C(=O)N(S(=O)(=O)c2ccccc2OC)c2cc(Cl)c(F)cc21 (stereo not shown) , please?
Result: 10 to 100 nM

Query: Recorded Ki for COc1ccc(S(=O)(=O)N2C(=O)C(c3cc(CN(C)C)ccc3OC)(N3C[C@H](O)C[C@H]3c3ncco3)c3cc(C#N)ccc32)cc1 (stereo partly shown) , please?
Result: < 10 nM

Query: Recorded Ki for CCCNCc1ccc(C2(N3CCC[C@H]3c3ncco3)C(=O)N(S(=O)(=O)c3ccc(C#N)cc3)c3ccc(Cl)cc32)c(OC)c1 (stereo partly shown) , please?
Result: 10 to 100 nM

Query: Recorded Ki for CC(C)NC(=O)Cn1c(-c2cccc(Cl)c2)nc2ccc([C@H]3C[C@@H](CN4CCC(F)CC4)C3)cc2c1=O , please?
Result: 1 to 10 nM

Query: Recorded Ki for CC(C)NC(=O)Cn1c(-c2cccc(Cl)c2)nc2ccc([C@H]3C[C@@H](CN4CCC(F)(F)CC4)C3)cc2c1=O , please?
Result: 1 to 10 nM

Query: Recorded Ki for CCOc1ccc(OC)cc1C1(N2CCN(C3CCN(C)CC3)CC2)C(=O)N(S(=O)(=O)c2ccc(OC)c3cccnc23)c2ccc(C#N)cc21 (racemic) , please?
Result: < 10 nM

Query: Recorded Ki for CCOc1ccc(OC)cc1C1(N2C[C@@H]3C[C@H]2CN3c2ccncc2)C(=O)N(S(=O)(=O)c2ccc(C)cn2)c2ccc(C#N)cc21 (mixture of isomers) , please?
Result: 10 to 50 nM

Query: Recorded Ki for CCOc1cc(F)ccc1C1(N2CCN(c3ccnc(C)c3)CC2)C(=O)N(S(=O)(=O)c2ccc(OC)cn2)c2ccc(C#N)cc21 (racemic) , please?
Result: < 10 nM

Query: Recorded Ki for CCOc1ncccc1[C@]1(NC(=O)N2CCN(C3CCN(C)CC3)CC2)C(=O)N(S(=O)(=O)c2ccc(OC)cc2OC)c2ccc(C#N)cc21 , please?
Result: < 10 nM

Query: Recorded Ki for CCOc1nc(Cl)ccc1C1(N2CC3CN(c4ccncc4)CC3C2)C(=O)N(S(=O)(=O)c2ccc(OC)cn2)c2ccc(C#N)cc21 (racemic) , please?
Result: 10 to 50 nM

Query: Recorded Ki for COc1ccc(S(=O)(=O)N2C(=O)C(NCc3ncco3)(c3cc(CN(C)C)ccc3OC)c3cc(Cl)ccc32)cc1 (stereo not shown) , please?
Result: 10 to 100 nM

Query: Recorded Ki for COc1ccc(S(=O)(=O)n2c(=O)n(C(C(=O)N3CC[C@@H](N4CCNCC4)C3)c3ccccc3)c3cc(C#N)ccc32)cc1 (stereo partly shown) , please?
Result: < 100 nM

Query: Recorded Ki for CCOc1ccccc1C1(N2CCN(c3ccnc(C)c3)CC2)C(=O)N(S(=O)(=O)c2cccc3cccnc23)c2ccc(C#N)cc21 (racemic) , please?
Result: 10 to 50 nM

Query: Recorded Ki for COc1ccc(S(=O)(=O)N2C(=O)C(c3cc(CN4CCCN(C)CC4)ccc3OC)(N3CCC[C@H]3c3ncco3)c3cc(C#N)ccc32)cc1 (stereo partly shown) , please?
Result: < 10 nM
